test system: ASPC1; assay: Growth inhibition of human AsPC1 cells at 20 uM after 72 hrs by alamar blue assay; assay type: functional; conditions: ASPC1, 72 h, read-out: GI
readout_kind: inhibition of growth at 20 µM (%)
Report as a plain number; the unit % is understood.

- query_smiles: "CC(=O)Nc1ccc2nc(C)c(C)nc2c1"
  unit_string: "%"
  measured_number: 26.2

Query block: Item `O=C(Nc1ccc2nc(-c3ccccc3)c(-c3ccccc3)nc2c1)N1CCCC1` has what recorded inhibition of growth at 20 µM?
Result block: 29.4

Query block: Item `O=C(Nc1ccc2nc(-c3ccco3)c(-c3ccco3)nc2c1)N1CCCC1` has what recorded inhibition of growth at 20 µM?
Result block: 11.6

====

tested on: PC-3; experiment: Growth inhibition of human PC3 cells at 20 uM after 72 hrs by alamar blue assay; assay type: functional
Activity calls are given as the source filed them. The rule behind the calls is not given here.
readout_kind: growth inhibition (GI)

- query_smiles: "Cc1ccc(S(=O)(=O)N(c2ccc3nc(-c4ccco4)c(-c4ccco4)nc3c2)S(=O)(=O)c2ccc(C)cc2)cc1"
  growth inhibition (GI): "inactive"
- query_smiles: "Cc1nc2ccc(NC(=O)N3CCCCC3)cc2nc1C"
  growth inhibition (GI): "inactive"
- query_smiles: "S=C(Nc1ccccc1)Nc1ccc2nc(-c3cccs3)c(-c3cccs3)nc2c1"
  growth inhibition (GI): "inactive"
- query_smiles: "CC(=O)Nc1ccc2nc(-c3cccs3)c(-c3cccs3)nc2c1"
  growth inhibition (GI): "inactive"

Next, consider the following compound.
Query block: Item `CC(=O)Nc1ccc2nc(-c3ccccc3)c(-c3ccccc3)nc2c1` has what recorded growth inhibition (GI)?
Result block: inactive

====

system: A549; assay: Growth inhibition of human A549 cells at 20 uM after 72 hrs by alamar blue assay; assay type: functional; settings: A549, 72 h, read-out: GI
readout_kind: inhibition of growth at 20 µM

Study these solved cases before continuing.
- query_smiles: "O=[N+]([O-])c1ccc(NC(=S)Nc2ccc3nc(-c4ccco4)c(-c4ccco4)nc3c2)cc1"
  result: "19.2%"
- query_smiles: "O=C(Nc1ccc(Br)cc1)Nc1ccc2nc(-c3ccco3)c(-c3ccco3)nc2c1"
  result: "> 100%"
- query_smiles: "CC(=O)Nc1ccc2nc(-c3ccco3)c(-c3ccco3)nc2c1"
  result: "57.8%"
- query_smiles: "O=C(Nc1ccc2nc(-c3ccco3)c(-c3ccco3)nc2c1)N1CCOCC1"
  result: "39.7%"
- query_smiles: "CC(=O)Nc1ccc2nc(C)c(C)nc2c1"
  result: "23.4%"

Query block: Item `O=C(Nc1ccc2nc(-c3ccccc3)c(-c3ccccc3)nc2c1)N1CCCC1` has what recorded inhibition of growth at 20 µM?
Result block: 11%

====

inhibition of growth at 20 µM listing for selected molecules.
test system: MDA-MB-231; test: Growth inhibition of human MDA-MB-231 cells at 20 uM after 72 hrs by alamar blue assay; type: functional; conditions: MDA-MB-231, 72 h, read-out: GI
Report as a plain number; the unit % is understood.

Query block: Item `O=[N+]([O-])c1ccc(NC(=S)Nc2ccc3nc(-c4cccs4)c(-c4cccs4)nc3c2)cc1` has what recorded inhibition of growth at 20 µM?
Result block: 53.3

====

test system: ASPC1; assay: Growth inhibition of human AsPC1 cells at 20 uM after 72 hrs by alamar blue assay; assay type: functional; conditions: ASPC1, 72 h, read-out: GI
readout_kind: inhibition of growth at 20 µM (%)
Report as a plain number; the unit % is understood.

Query block: Item `O=C(Nc1ccccc1)Nc1ccc2nc(-c3ccco3)c(-c3ccco3)nc2c1` has what recorded inhibition of growth at 20 µM?
Result block: 9.6

Query block: Item `O=C(Nc1ccc(Cl)cc1)Nc1ccc2nc(-c3ccco3)c(-c3ccco3)nc2c1` has what recorded inhibition of growth at 20 µM?
Result block: 81.1

Query block: Item `O=[N+]([O-])c1ccc(NC(=S)Nc2ccc3nc(-c4ccccc4)c(-c4ccccc4)nc3c2)cc1` has what recorded inhibition of growth at 20 µM?
Result block: 55.5

====

system: A549; assay: Growth inhibition of human A549 cells at 20 uM after 72 hrs by alamar blue assay; type: functional; conditions: A549, 72 h, read-out: GI
readout_kind: inhibition of growth at 20 µM

Study these solved cases before continuing.
- query_smiles: "O=C(Nc1ccc2nc(-c3ccco3)c(-c3ccco3)nc2c1)N1CCCC1"
  inhibition of growth at 20 µM: "23.3%"
- query_smiles: "O=C(Nc1ccc(F)cc1)Nc1ccc2nc(-c3ccco3)c(-c3ccco3)nc2c1"
  inhibition of growth at 20 µM: "> 100%"

Query block: Item `O=C(Nc1ccc(Cl)cc1)Nc1ccc2nc(-c3ccco3)c(-c3ccco3)nc2c1` has what recorded inhibition of growth at 20 µM?
Result block: 99.2%

Query block: Item `O=C(Nc1ccc(-c2ccccc2)cc1)Nc1ccc2nc(-c3ccco3)c(-c3ccco3)nc2c1` has what recorded inhibition of growth at 20 µM?
Result block: 13.8%

====

tested on: MDA-MB-231; test: Growth inhibition of human MDA-MB-231 cells at 20 uM after 72 hrs by alamar blue assay; type: functional; details: MDA-MB-231, 72 h, read-out: GI
inhibition of growth at 20 µM listing for selected compounds.
Report as a plain number; the unit % is understood.

Study these solved cases before continuing.
- query_smiles: "CC(=O)Nc1ccc2nc(C)c(C)nc2c1"
  inhibition of growth at 20 µM [%]: 25.7
- query_smiles: "O=[N+]([O-])c1ccc(NC(=S)Nc2ccc3nc(-c4ccccc4)c(-c4ccccc4)nc3c2)cc1"
  inhibition of growth at 20 µM [%]: 72.6
- query_smiles: "S=C(Nc1ccccc1)Nc1ccc2nc(-c3ccco3)c(-c3ccco3)nc2c1"
  inhibition of growth at 20 µM [%]: 19.1

Query block: Item `O=C(Nc1ccc(F)cc1)Nc1ccc2nc(-c3ccco3)c(-c3ccco3)nc2c1` has what recorded inhibition of growth at 20 µM?
Result block: 38.4

Query block: Item `O=C(Nc1ccc(Cl)cc1)Nc1ccc2nc(-c3ccco3)c(-c3ccco3)nc2c1` has what recorded inhibition of growth at 20 µM?
Result block: 92.5

Query block: Item `O=C(Nc1ccc2nc(-c3ccco3)c(-c3ccco3)nc2c1)N1CCCC1` has what recorded inhibition of growth at 20 µM?
Result block: 18.2

Query block: Item `CC(=O)Nc1ccc2nc(-c3ccco3)c(-c3ccco3)nc2c1` has what recorded inhibition of growth at 20 µM?
Result block: 20.3

Query block: Item `O=C(Nc1ccc(-c2ccccc2)cc1)Nc1ccc2nc(-c3ccco3)c(-c3ccco3)nc2c1` has what recorded inhibition of growth at 20 µM?
Result block: 50.2

Query block: Item `O=[N+]([O-])c1ccc(NC(=S)Nc2ccc3nc(-c4ccco4)c(-c4ccco4)nc3c2)cc1` has what recorded inhibition of growth at 20 µM?
Result block: 9

Query block: Item `Cc1nc2ccc(NC(=O)NN3CCC(Cc4ccccc4)CC3)cc2nc1C` has what recorded inhibition of growth at 20 µM?
Result block: 12.4

====

inhibition of growth at 20 µM listing for selected molecules.
tested on: A549; assay: Growth inhibition of human A549 cells at 20 uM after 72 hrs by alamar blue assay; assay type: functional; details: A549, 72 h, read-out: GI
Report as a plain number; the unit % is understood.

Study these solved cases before continuing.
- query_smiles: "S=C(Nc1ccccc1)Nc1ccc2nc(-c3ccco3)c(-c3ccco3)nc2c1"
  unit_string: "%"
  inhibition of growth at 20 µM: 18
- query_smiles: "O=[N+]([O-])c1ccc(NC(=S)Nc2ccc3nc(-c4ccccc4)c(-c4ccccc4)nc3c2)cc1"
  unit_string: "%"
  inhibition of growth at 20 µM: 16.6
- query_smiles: "Cc1nc2ccc(NC(=O)NN3CCC(Cc4ccccc4)CC3)cc2nc1C"
  unit_string: "%"
  inhibition of growth at 20 µM: 40.3

Query block: Item `O=C(Nc1ccc2nc(-c3ccco3)c(-c3ccco3)nc2c1)NN1CCC(Cc2ccccc2)CC1` has what recorded inhibition of growth at 20 µM?
Result block: 93.1

Query block: Item `O=C(Nc1ccccc1)Nc1ccc2nc(-c3ccco3)c(-c3ccco3)nc2c1` has what recorded inhibition of growth at 20 µM?
Result block: 54.6

====

inhibition of growth at 20 µM listing for selected compounds.
system: MDA-MB-231; assay: Growth inhibition of human MDA-MB-231 cells at 20 uM after 72 hrs by alamar blue assay; format: functional; details: MDA-MB-231, 72 h, read-out: GI
Report as a plain number; the unit % is understood.

Study these solved cases before continuing.
- query_smiles: "O=C(Nc1ccccc1)Nc1ccc2nc(-c3ccco3)c(-c3ccco3)nc2c1"
  inhibition of growth at 20 µM, %: 31.3
- query_smiles: "O=C(Nc1ccc2nc(-c3ccccc3)c(-c3ccccc3)nc2c1)N1CCCC1"
  inhibition of growth at 20 µM, %: 16.7
- query_smiles: "O=C(Nc1ccc2nc(-c3ccco3)c(-c3ccco3)nc2c1)NN1CCC(Cc2ccccc2)CC1"
  inhibition of growth at 20 µM, %: 90.8

Next, consider the following compound.
Query block: What measured inhibition of growth at 20 µM is associated with `O=C(Nc1ccc2nc(-c3ccco3)c(-c3ccco3)nc2c1)N1CCOCC1` on MDA-MB-231?
Result block: 10.9
